// provenance: patent US6858210B1

system: affinity purified β2GPI-dependent antiphospholipid antibody; assay: Competitive inhibition ELISA: recombinant β2GPI proteins compete for antibody binding to coated full length recombinant β2GPI; set-up: species or system human; conditions: Ab 6626
readout: Max (maximum inhibition observed at concentrations tested) (%)
Answers are plain numbers, in %.

Below, each entry is followed by its recorded Max (maximum inhibition observed at concentrations tested) result.
molecule	unitSymbol	recordedResult
---45: recombinant β2GPI deletion mutant with domains 4, 5 (protein) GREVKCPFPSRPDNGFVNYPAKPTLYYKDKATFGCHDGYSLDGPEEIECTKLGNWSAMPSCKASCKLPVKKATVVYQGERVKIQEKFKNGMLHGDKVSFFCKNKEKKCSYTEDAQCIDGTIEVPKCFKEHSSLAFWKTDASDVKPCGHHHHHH	%	15
--345: recombinant β2GPI deletion mutant with domains 3, 4, 5 (protein) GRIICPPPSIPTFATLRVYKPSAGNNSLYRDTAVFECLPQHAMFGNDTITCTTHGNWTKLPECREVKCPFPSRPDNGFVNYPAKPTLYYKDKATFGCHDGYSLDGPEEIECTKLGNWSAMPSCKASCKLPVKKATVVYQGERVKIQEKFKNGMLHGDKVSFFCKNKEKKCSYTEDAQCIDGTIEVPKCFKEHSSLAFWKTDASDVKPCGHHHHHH	%	20

Next, consider the following molecule.
Entry under review: 12---: recombinant β2GPI deletion mutant with domains 1 and 2 (protein) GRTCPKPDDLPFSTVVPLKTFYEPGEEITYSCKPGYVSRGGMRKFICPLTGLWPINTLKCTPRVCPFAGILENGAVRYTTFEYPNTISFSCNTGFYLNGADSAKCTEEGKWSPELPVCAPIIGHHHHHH . Reported Max (maximum inhibition observed at concentrations tested)?
50
